Where do the numbers come from? From patent US8067445B2.

- assaySystem: recombinant human CRTH2 receptor (Homo sapiens)
- Construct: expressed in transfected cells
- experimentNotes: GTPγS binding assay
- Assay type: biochemical
- testConditions: +HSA (0.2% human serum albumin), 80 nM PGD2, CHO cell membranes; read-out: hDP2 GTPγS μM (+HSA)
testReadout: IC50

Worked cases, answers included:
| compound | reported |
| --- | --- |
| CCN(Cc1cc(C(F)(F)F)ccc1-c1cc(CC(=O)O)ccc1OC)C(=O)NC#N | 0.3 to 1 µM |
| CCN(Cc1cc(C(F)(F)F)ccc1-c1cc(C(C)C(=O)O)ccc1OC)C(=O)NCc1ccccc1 (stereo not drawn) | < 0.3 µM |
| CCOc1ccc(-c2ccc(-c3cc(CC(=O)O)ccc3OC)c(CN(CC)C(=O)NCc3ccccc3)c2)cn1 | < 0.3 µM |
| CCN(Cc1cc(-c2cnn(C)c2)ccc1-c1cc(CC(=O)O)ccc1OC)C(=O)NCc1ccccc1 | < 0.3 µM |
| CCN(Cc1cc(C(F)(F)F)ccc1-c1cc(CC(=O)O)ccc1OC)/C(=N/C#N)NCC1CCCCC1 | < 0.3 µM |
| CCN(Cc1cc(C(F)(F)F)ccc1-c1cc(CC(=O)O)cc(C(F)(F)F)c1)C(=O)OCc1ccccc1 | < 0.3 µM |

Consider the record given below.
### Prompt Under recombinant human CRTH2 receptor (Homo sapiens): IC50 value of CCN(Cc1cc(C(F)(F)F)ccc1-c1ccc(F)c(CC(=O)O)c1)C(=O)OCc1ccccc1 ?
### Response < 0.3 µM

###

- assaySystem: human DP1 receptor (Homo sapiens)
- Construct: tissue Biological Specialty Corporation; host or cells: human platelet membranes
- Sequence (Q13258 whole entry): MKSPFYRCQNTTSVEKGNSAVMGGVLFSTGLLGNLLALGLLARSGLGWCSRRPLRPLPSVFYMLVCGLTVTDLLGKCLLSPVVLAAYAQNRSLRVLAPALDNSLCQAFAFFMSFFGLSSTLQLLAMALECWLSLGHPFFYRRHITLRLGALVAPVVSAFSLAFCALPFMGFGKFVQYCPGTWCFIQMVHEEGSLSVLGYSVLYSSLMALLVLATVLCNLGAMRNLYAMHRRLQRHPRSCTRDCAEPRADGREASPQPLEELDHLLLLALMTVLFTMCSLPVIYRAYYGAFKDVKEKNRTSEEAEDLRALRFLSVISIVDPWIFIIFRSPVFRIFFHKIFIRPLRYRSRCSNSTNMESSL
- experimentNotes: DP1 radioligand binding assay ([3H]BWA868C, platelet membranes)
- testConditions: [3H]BWA868C binding, human platelet membranes; read-out: hDP1
- Experimental: The ability of a compound to bind to the human DPI receptor was evaluated via a radioligand membrane binding assay using the DP1 selective synthetic ligand [^311]BWA868C. […] Scintillant is then added to the plates and the radioactivity retained on the filters is determined on a Packard TopCount (Perkin Elmer). Specific binding is determined as total radioactive binding minus non-specific binding in the presence of 10 μM BW A868C. […]
testReadout: IC50

Previously resolved entries follow.
| molecule | reported |
| --- | --- |
| O=C(O)Cc1ccc(F)c(-c2ccc(C(F)(F)F)cc2CN(CC(F)(F)F)C(=O)OCc2ccccc2)c1 [Compound 1-49] | 1000 to 30000 nM |
| CCN(Cc1cc(C(F)(F)F)ccc1-c1cc(Cc2nn[nH]n2)ccc1OC)C(=O)OCc1ccccc1 [Compound 2-5] | < 300 nM |

### Prompt Which IC50 value is on record for COc1ccc(CC(=O)O)cc1-c1ccc(C(F)(F)F)cc1CN(CC(C)(C)C)C(C)=O [Compound 1-3] ?
### Response 1000 to 30000 nM

###

- assaySystem: human DP2 receptor (Homo sapiens)
- Construct: expressed in transfected cells
- Sequence (Q9Y5Y4 1-395): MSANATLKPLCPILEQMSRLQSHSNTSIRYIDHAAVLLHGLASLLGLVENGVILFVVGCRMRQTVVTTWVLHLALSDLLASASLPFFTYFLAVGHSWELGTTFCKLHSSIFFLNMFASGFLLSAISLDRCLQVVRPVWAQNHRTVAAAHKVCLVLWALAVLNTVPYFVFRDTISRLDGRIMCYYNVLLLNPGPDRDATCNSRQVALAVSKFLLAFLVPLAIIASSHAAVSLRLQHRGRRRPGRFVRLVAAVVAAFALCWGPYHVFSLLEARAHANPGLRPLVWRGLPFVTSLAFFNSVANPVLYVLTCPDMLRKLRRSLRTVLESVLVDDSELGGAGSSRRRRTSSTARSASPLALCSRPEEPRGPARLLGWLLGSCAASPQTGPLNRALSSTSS
- experimentNotes: DP2/CRTH2 radioligand binding assay ([3H]PGD2)
- testConditions: [3H]PGD2 binding, membranes of HEK293 cells expressing human DP2; read-out: hDP2
pIC50: −log10 of the molar value.
testReadout: pIC50

# annotated cases, reported pIC50 shown
| compound | pIC50 |
| --- | --- |
| CCOC(=O)Cc1ccc(OC)c(-c2ccc(C(=O)O)cc2CN(CC)C(=O)OCc2ccccc2)c1 [Compound 2-14] | 4.52 to 6.00 |
| CCN(Cc1cc(C(F)(F)F)ccc1-c1cc(CC(=O)O)ccc1OC)/C(=N/C#N)NCC1CCCCC1 [Compound 1-112] | > 6.52 |
| O=C(O)Cc1ccc(F)c(-c2ccc(C(F)(F)F)cc2CN(CC(F)(F)F)C(=O)OCc2ccccc2)c1 [Compound 1-49] | 4.52 to 6.00 |

### Prompt # query: pIC50 of entry CCOc1ccc(-c2ccc(-c3cc(CC(=O)O)ccc3OC)c(CN(CC)C(=O)Cc3ccccc3)c2)cn1 [Compound 1-255]
### Response > 6.52

### Prompt Look at this compound and give its reported pIC50. CCN(Cc1cc(C(F)(F)F)ccc1-c1ccc(Cl)c(CC(=O)O)c1)C(=O)OCc1ccccc1 [Compound 1-125]
### Response > 6.52

### Prompt Reported pIC50 for CCN(Cc1cc(C(F)(F)F)ccc1-c1cc(Cl)cc(C(C)C(=O)O)c1)C(C)=O (stereo not shown) [Compound 1-211] : what is it?
### Response > 6.52

### Prompt Query: pIC50; subject: CCN(Cc1cccc(OC)c1-c1cccc(CC(=O)O)c1)C(=O)OCc1cc(F)cc(F)c1 [Compound 1-123]
### Response > 6.52
